Test: in vitro
Conditions: mouse, microsomes, pH 7.4, % Remaining, T=20 min, n=1, mouse liver microsomes, 1 µM, 20 min, n=1
Each item that follows carries a reported remaining at 20 min, 1 µM.
Record the result as a number with its unit.

Examples with their reported remaining at 20 min, 1 µM follow.
> print(dat)
                               input.smiles  test.value
1  O=C1NC(=O)C(=Cc2ccc(N3CCOCC3)cc2[N+](=O)[O-])C(=O)N1       83.8%
2         COc1cc(C=C2C(=O)NC(=O)NC2=O)ccc1O        9.8%
3       O=C1NC(=O)C(=C/C=C/c2ccccc2)C(=O)N1          0%

For the next question, use this compound.
## Task Return remaining at 20 min, 1 µM for the following compound: O=C1NC(=O)C(=Cc2ccc(-c3ccccc3F)[nH]2)C(=O)N1
## Result 0.7%
